The reported numbers originate from the supplement of paper PMC5919970.

System: TYKNU
Procedure summary: fractional viability relative to vehicle; TYKNU is a high-grade serous ovarian cancer line; higher = less growth inhibition
Setup conditions: 2uM; 72 h; genotype: sgCTRLA1 (non-targeting control)
Where a name gives a salt, the structure may show the parent alone. The full ranking holds about 2,000 compounds; the median of “fractional viability relative to vehicle” is about 0.91, and the lowest 2% start at about 0.045. For the sample, the lowest values were picked, then their nearest neighbours and some compounds at random.
Classify by fractional viability. Ranges: low group: < 0.8; middle group: ≥ 0.8 and < 1; high group: ≥ 1

Below are worked cases with known answers.
- Compound: "CCOc1cc(N2CCC(O)CC2)ccc1Nc1ncc2c(n1)N(C)c1ccccc1C(=O)N2C"
  Classification: "middle group"
- Compound: "COc1cc(N2CCC(N)CC2)ccc1Nc1ncc(Cl)c(-c2c[nH]c3ccccc23)n1"
  Classification: "low group"
- Compound: "NC(=O)c1cn(Cc2c(F)cccc2F)nn1 [Rufinamide]"
  Classification: "high group"
- Compound: "CC(=O)Nc1ccc(C(=O)Nc2ccccc2N)cc1"
  Classification: "middle group"
- Compound: "Cc1ccc(NC(=O)c2ccc(CN3CCN(C)CC3)cc2)cc1Nc1nccc(-c2cccnc2)n1 [Imatinib Mesylate (STI571)]"
  Classification: "high group"

Problem: Assign a category based on measured fractional viability for CC[C@H](Nc1ncnc2[nH]cnc12)c1nc2cccc(F)c2c(=O)n1-c1ccccc1 and give only the class name.
Solution: high group

Problem: Class (by measured fractional viability) for CNC(=O)c1ccccc1Nc1nc(Nc2ccc(N3CCOCC3)cc2OC)ncc1Cl
Solution: middle group

Problem: Class label required: Cc1cc(Nc2ccc(NC(=O)c3ccc(Nc4ccnc5ccccc45)cc3)cc2)nc(N)n1
Solution: low group
